Test system: carbapenemase producing K. pneumoniae
Test: MIC by broth micro-dilution (CLSI), carbapenemase producing K. pneumoniae
Assay type: cell-based, Klebsiella pneumoniae
Details: Klebsiella pneumoniae, ATCCBAA1705, KPC-2 K. pneumoniae ATCC BAA-1705; read-out: MIC
value-type: MIC (µg/mL)

(A) C[C@@H](NC=N)[C@H]1C(=O)N2C(C(=O)O)=C(S[C@@H]3CN[C@H](C(=O)N(C)C)C3)[C@H](C)[C@H]12 [Example 48]
(B) C[C@@H](NC(=O)Cn1cnnn1)[C@H]1C(=O)N2C(C(=O)O)=C(S[C@@H]3CN[C@H](C(=O)N4CC[C@H](N)[C@@H](O)C4)C3)[C@H](C)[C@H]12 [Example 554]
Lab note: record which item had the higher MIC, A or B . Reply briefly: the label of your chosen item.
A
(A: 64 µg/mL, B: 2 µg/mL)

(P) C[C@@H](NS(C)(=O)=O)[C@H]1C(=O)N2C(C(=O)O)=C(S[C@@H]3CN[C@H](C(=O)N(CCN)CCO)C3)[C@H](C)[C@H]12 [Example 201]
(Q) C[C@@H](NC(=O)Cn1cnnn1)[C@H]1C(=O)N2C(C(=O)O)=C(S[C@@H]3CN[C@H](C(=O)N4CCN(CCNC(=N)N)CC4)C3)[C@H](C)[C@H]12 [Example 432]
(R) CNCC(=O)N[C@H](C)[C@H]1C(=O)N2C(C(=O)O)=C(S[C@@H]3CN[C@H](C(=O)N4CCN(C(=N)N)CC4)C3)[C@H](C)[C@H]12 [Example 361]
Rank descending by MIC. // rank by listing labels in the order requested
P, R, Q
